- Experimental System: Concanavalin-A (Canavalia ensiformis) (UniProt P02866)
- Sequence (P02866 whole entry, looked up): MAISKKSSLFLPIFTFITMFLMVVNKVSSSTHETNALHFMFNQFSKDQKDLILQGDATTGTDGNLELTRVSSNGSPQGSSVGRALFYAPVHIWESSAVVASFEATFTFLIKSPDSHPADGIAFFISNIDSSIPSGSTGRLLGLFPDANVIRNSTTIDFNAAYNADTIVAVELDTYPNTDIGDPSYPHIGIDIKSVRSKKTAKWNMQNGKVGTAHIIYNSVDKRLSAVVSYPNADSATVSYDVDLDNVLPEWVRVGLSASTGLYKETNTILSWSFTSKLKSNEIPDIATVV
- Measurement Description: ConA small-molecule binders, primary screen, artefact control for SMM control protein annotation, biochemical, small-molecule microarray, Alexa647 label, 635 nm (AID 1127);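 note: z combines 667 nm emission intensity with signal-to-noise across three replicate slides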
- Measurement Setup: ConA-A647 binding fluorescence, higher = more signal
Readout: composite z-score
Please give only the number in your answer, with no unit.

Input line: Sample CN(C)CCCNC(=O)[C@@]1(c2ccc([N+](=O)[O-])cc2)CC(=O)N(CC23CC4CC(CC(C4)C2)C3)[C@@H]1c1ccc(CO)cc1 — what was its composite z-score?
Output line: 1.15

***
Input line: Recorded composite z-score for [N-]=[N+]=Nc1ccccc1C[C@]1(C(=O)NCc2ccccc2)N=C(c2ccc(OCCCO)cc2)O[C@H]1c1ccccc1 , please?
Output line: 1.07

Input line: Consider the compound C#CCNC(=O)[C@H](Cc1ccccc1)NC(=O)[C@@H](N=[N+]=[N-])C(C)C and give its measured composite z-score.
Output line: 0.584

Input line: Sample CCCCC(=C=CC[C@@H](O)c1ccc(OCCO)cc1)C[C@@H](O)COCc1ccccc1 — what was its composite z-score?
Output line: -0.382

Input line: Please report the recorded composite z-score for C=C(COC)/C(=C/C[C@@H](OC(=O)c1ccncc1)c1ccc(OCCO)cc1)c1cnc2ccccc2c1 .
Output line: 1.15

Input line: Report composite z-score for O=C(O)[C@H]1C[C@H]2C(=O)N3CCC[C@H]3C(=O)N2[C@H]1c1cccc(OCCO)c1 please.
Output line: 0.942

Input line: I'd like to know its composite z-score. The compound in question is CCOC(=O)C1=CC[C@@H](c2cc(Cl)ccc2Cl)N(S(=O)(=O)c2ccc(C)cc2)[C@H]1c1ccc(OC)cc1
Output line: -1.21

Input line: Fill in: composite z-score of O=C1C2C=CC(C(O)c3cc(C(F)(F)F)cc(C(F)(F)F)c3)N(Nc3ccc([N+](=O)[O-])cc3)C2C(=O)N1c1ccccc1 (configuration not stated) is ___
Output line: 1.15

Input line: Item under review: COCCCNC(=O)[C@]1(Cc2ccccc2CN=[N+]=[N-])N=C(c2ccc(OCCCO)cc2)O[C@@H]1c1ccccc1 . Reported composite z-score?
Output line: 1

Input line: Which measured composite z-score value corresponds to COc1ccc(C(O)C2C=CC3C(=O)N(C)C(=O)C3N2N2CCCCC2)cc1 (configuration not stated) ?
Output line: 1.11

Input line: Param item = CCOC(=O)C[C@H]1[C@H](OC(=O)c2ccc(-c3ccccc3)cc2)[C@@H](NC(=O)C2CCCCC2)c2cc(OCCCO)ccc2N1C(=O)c1ccccc1 ; retrieve measured composite z-score.
Output line: 0.949

Input line: May I ask what composite z-score has been recorded for O=C(CS)NCCCCCCNC(=O)[C@@H]1C[C@@H]2C(=O)N3CCC[C@H]3C(=O)N2[C@@H]1c1cccc(OCCO)c1 ?
Output line: 1.1

Input line: Reported composite z-score for COc1ccc(C#Cc2ccc3c(c2)[C@]2(C(=O)N3)[C@H](C(=O)N3CCc4cc(OC)c(OC)cc4C3)[C@H]3C(=O)O[C@H](c4ccccc4)[C@H](c4ccccc4)N3[C@@H]2c2ccc(O)cc2)cc1 : what is it?
Output line: 1.13

Input line: What does the data say about its composite z-score? Entry: C[C@]1(C(=O)NCCN2CCOCC2)c2ccccc2C(=O)N(Cc2ccc(OC(F)(F)F)cc2)[C@H]1c1ccc(CO)cc1
Output line: 0.392

Input line: Suppose we examine the compound C[C@]1(C(=O)O)c2ccccc2C(=O)N(Cc2ccccc2)[C@H]1c1ccc(CO)cc1 ; what composite z-score value has been reported?
Output line: -1.34

Input line: Form field: reported composite z-score of CC(C)OC(=O)CC(=O)CC(O)c1cccc(C#N)c1 (configuration not stated)
Output line: 1.13

Input line: Would you kindly share the measured composite z-score for O=C1NC(=O)C2C1C=CC(C(O)c1c(F)cccc1Cl)N2Nc1ccccn1 (configuration not stated) ?
Output line: -0.453

* * *

Readings of z-score for the listed compounds
- Experimental System: NADPH oxidase 5 (Homo sapiens) (UniProt Q96PH1)
- Sequence (Q96PH1 whole entry, looked up): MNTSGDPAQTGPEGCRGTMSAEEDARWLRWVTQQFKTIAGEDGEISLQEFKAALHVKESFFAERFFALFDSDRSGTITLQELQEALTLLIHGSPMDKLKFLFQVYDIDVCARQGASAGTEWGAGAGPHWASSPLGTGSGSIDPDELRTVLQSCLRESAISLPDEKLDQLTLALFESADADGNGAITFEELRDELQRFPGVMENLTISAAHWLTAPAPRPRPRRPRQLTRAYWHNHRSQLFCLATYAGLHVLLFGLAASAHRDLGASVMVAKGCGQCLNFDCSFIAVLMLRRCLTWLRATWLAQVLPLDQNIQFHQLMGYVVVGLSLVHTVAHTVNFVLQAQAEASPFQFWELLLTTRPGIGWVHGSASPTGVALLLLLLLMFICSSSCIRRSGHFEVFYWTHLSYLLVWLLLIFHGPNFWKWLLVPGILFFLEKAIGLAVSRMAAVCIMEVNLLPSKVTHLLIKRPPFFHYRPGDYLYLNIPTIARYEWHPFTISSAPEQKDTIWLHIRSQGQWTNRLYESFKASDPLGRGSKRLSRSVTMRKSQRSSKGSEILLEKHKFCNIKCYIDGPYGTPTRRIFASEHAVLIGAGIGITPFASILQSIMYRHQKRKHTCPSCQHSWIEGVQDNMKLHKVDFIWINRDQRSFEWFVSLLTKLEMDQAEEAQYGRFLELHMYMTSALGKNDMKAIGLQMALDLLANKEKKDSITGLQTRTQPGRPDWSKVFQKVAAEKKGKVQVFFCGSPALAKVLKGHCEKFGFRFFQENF
- Measurement Description: NOX5-dependent H2O2 signal modulators, primary screen, NOX inhibitor project, cell-based, HEK293-NOX5, Amplex Red fluorescence (AID 1161)
- Measurement Setup: HEK293-NOX5, ionomycin, 45 min, higher = more signal
Kindly provide the number alone.

Example entries and their recorded answers appear below.
Input line: What value of measured z-score is listed for COc1ccc(NN2C(C(O)c3ccccn3)C=CC3C(=O)N(C4CCCCC4)C(=O)C32)cc1 (centres undefined) ?
Output line: -2.33

Input line: Consider the compound COc1ccc(C#Cc2ccc3c(c2)[C@]2(C(=O)N3)[C@H](C(=O)N3CCc4cc(OC)c(OC)cc4C3)[C@H]3C(=O)O[C@H](c4ccccc4)[C@H](c4ccccc4)N3[C@@H]2c2ccc(O)cc2)cc1 and give its measured z-score.
Output line: -0.523

Input line: Any idea what its z-score is? The compound is CC(=O)n1cc(C(O)C2C=CC3C(=O)N(c4ccccc4)C(=O)C3N2Nc2ccccc2)c2ccccc21 (centres undefined)
Output line: -4.68

// below: z-score requested for another compound
Input line: z-score for C[n+]1ccc(CCCO)cc1 ?
Output line: -1.72

* * *

- Measurement Description: binders of probe aFGF2 on microarray, primary screen, stem cell growth factor project, biochemical, small-molecule microarray, fluorescence 635/667 (AID 1067);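 note: measures binding of biotinylated aFGF2 protein to printed compounds on slides; z-score merges feature fluorescence and signal-to-noise across triplicate slides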
- Measurement Setup: higher = more signal
Label -1 if composite z-score falls below -0.04; label 1 in every other case.

Input line: Is composite z-score at least -0.04? Consider C=C(C(=O)CC[C@H](OC(C)=O)c1cccc(OCCO)c1)C(C)C
Output line: -1

Input line: Record COCCOC(=O)N1C(=O)[C@@]2(c3cc(C#CCC(C(=O)OC)C(=O)OC)ccc31)[C@H](c1ccc(OCCO)cc1)N1[C@H](c3ccccc3)[C@H](c3ccccc3)OC(=O)[C@H]1[C@@H]2C(=O)N1CCN(c2ncccn2)CC1 ; criterion: composite z-score no lower than -0.04. Met?
Output line: -1

Input line: Determine whether measured composite z-score meets or exceeds -0.04 for C=CCN1C(=O)[C@@]2(O[C@@H](CCO)[C@H]([Si](C)(C)c3ccc(OC)cc3)[C@H]2C)c2cc(N3C(=O)c4ccccc4Oc4ccccc43)ccc21
Output line: -1

Input line: Is it the case that CO[C@H]1O[C@H](CO)[C@@H](OC(=O)Nc2ccc(C(F)(F)F)cc2)[C@H](OC(=O)Nc2ccc3c(c2)OCO3)[C@H]1OC(=O)Nc1ccc2c(c1)OCO2 has composite z-score reaching or exceeding -0.04?
Output line: 1

Input line: Please indicate if the recorded composite z-score for CC(C)c1ccc(NN2C(C(O)c3ccco3)C=CC3C(=O)N(c4ccccc4)C(=O)C32)cc1 (configuration not stated) meets or exceeds -0.04.
Output line: 1

---
Input line: Assess whether reported composite z-score for COC(=O)Cn1c(C(=O)N2CCCC2)cc2c1C[C@H]1CN(C(=O)c3ccccc3)[C@@](Cc3ccc(F)cc3)(C(=O)OC)[C@@H]21 sits at -0.04 or higher.
Output line: 1

Input line: Evaluate COCCOC(=O)N1C(=O)[C@@]2(c3cc(C#CC4=CCCCC4)ccc31)[C@H](c1ccc(O)cc1)N1[C@H](c3ccccc3)[C@H](c3ccccc3)OC(=O)[C@H]1[C@@H]2C(=O)Nc1nc2ccccc2s1 : composite z-score at minimum -0.04?
Output line: 1

Input line: Quick check, composite z-score >= -0.04? C[C@]1(C(=O)NCCN2CCOCC2)c2ccccc2C(=O)N(Cc2ccc(OC(F)(F)F)cc2)[C@H]1c1ccc(CO)cc1
Output line: -1

Input line: API: above_or_equal(metric=composite z-score, cutoff=-0.04) for item C=C(CCCC)/C(=C/C[C@@H](OC(C)=O)c1ccc(CO)o1)c1cc(C(=O)OC)ccc1OC
Output line: -1

Input line: Determine whether measured composite z-score meets or exceeds -0.04 for COc1ccc([Si](C)(C)[C@H]2[C@H](CCn3cc(CCO)nn3)O[C@@]3(C(=O)N(Cc4ccc(N5C(=O)c6cccc7cccc5c67)cc4)c4ccccc43)[C@@H]2C)cc1
Output line: -1

* * *

Property: z-score; scope: individual molecules
- Measurement Description: inhibitors of hydroxyurea-induced Chk1 phosphorylation, primary screen, imaging, HeLa, phospho-Chk1 antibody, percent positive cells (AID 1186)
- Measurement Setup: hydroxyurea-induced phospho-Chk1 immunofluorescence imaging, higher = more signal
Enter a number only.

Reference set, count: 6
Input line: Which z-score value belongs to NC(=O)N1C(=O)C2C(C1=O)C1C=C(CCCO)C2C(c2cccs2)N1Cc1cc2c(cc1Br)OCO2 (configuration not stated) ?
Output line: 0.164

Input line: # lookup: z-score of CC(C)CN1C(=O)[C@@]2(Cc3ccccc31)c1ccccc1C(=O)N(Cc1ccccc1C(F)(F)F)[C@H]2c1ccc(CO)cc1
Output line: -0.417

Input line: What value of z-score has been reported for the following molecule? NC(=O)NCC#Cc1ccc2c(c1)[C@]1(C(=O)N2)[C@H](C(=O)O)[C@H]2C(=O)O[C@H](c3ccccc3)[C@H](c3ccccc3)N2[C@@H]1c1ccccc1OCCO
Output line: -0.0005

Input line: What does the record list as z-score for CC1CC/C=C\[C@H]2OC34C=CCN(c5ccc6ccccc6c5)C(=O)[C@H]3N(C(CO)C(C)C)C(=O)[C@@H]4C2C(=O)O1 (some centres not stated) ?
Output line: 0.174

Input line: Param item = Cc1ccc(S[C@]2(C(=O)NC(C)C)CC(=O)N(C3Cc4ccccc4C3)[C@@H]2c2ccc(CO)cc2I)cc1 ; retrieve measured z-score.
Output line: 0.425

Input line: Which measured z-score value corresponds to CC(C)N1C(=O)[C@@]2(c3ccc([N+](=O)[O-])cc3)CC(=O)N(C3CCCCC3)[C@@H]2c2ccc(CO)cc21 ?
Output line: -0.135

Continuing:
Input line: Give the measured z-score of COc1ccc(NN2C(C(O)c3ccccn3)C=CC3C(=O)N(C4CCCCC4)C(=O)C32)cc1 (configuration not stated) .
Output line: -0.773

Input line: Recorded z-score of COc1ccc(CCNC(=O)[C@@]2(Sc3ccc(C)cc3)CC(=O)N(Cc3cc(C(F)(F)F)cc(C(F)(F)F)c3)[C@@H]2c2ccc(CO)cc2I)cc1 , please.
Output line: 0.261

Input line: Look up z-score: CON(C)C(=O)C=C1C[C@@H](c2cccc(Cl)c2)O[C@@H](c2cccc(Cl)c2)O1
Output line: -0.0938

Input line: Recorded z-score of C=CC1c2cc(O)c(OC)cc2CCN1Cc1sc2ccccc2c1Cl (configuration not stated) , please.
Output line: 0.326

Input line: Fill in: z-score of O=C1O[C@@H](c2ccccc2)[C@@H](c2ccccc2)N2[C@@H](c3ccc(O)cc3)[C@]3(C(=O)Nc4ccccc43)[C@@H](C(=O)Nc3nc4ccccc4s3)[C@H]12 is ___
Output line: -0.193

Input line: I'd like to know its z-score. The molecule in question is COc1ccc(NC(=O)O[C@H]2[C@H](OC(=O)Nc3ccc4c(c3)OCO4)[C@@H](OC(=O)Nc3ccc4c(c3)OCO4)[C@@H](OC)O[C@@H]2CO)cc1
Output line: -0.0538
